pEC50 values, listed per item
- System: γδ T cell
- assay-info: γδ T cell amplification from human PBMCs, counting γδ T cell using flow cytometry (given as in vivo EC50)
- Type: cell-based
- condition-set: γδ T cell amplification from human PBMCs, flow cytometry count
pEC50: −log10 of the molar value.

1. C/C(=C\COP(=O)(O)OP(=O)(O)O)CO; ~11.30

The record that follows has no pEC50 shown yet.
# pEC50 measured on γδ T cell for item O=P(O)(O)C(O)(Cn1ccnc1)P(=O)(O)O [Zoledronate®, reference compound] = ~6.00
